For each record, write down the corresponding protein stability index.
test system: Saccharomyces cerevisiae; assay: protein stability index of tFT-peptide fusion (C-terminal peptide) (PSI (0-1 scale)); higher = more stable (slower turnover); settings: genetic background: cdc34-1; temperature: 37 C
Numbers only.

Solved cases below.
>  <record sequence>
FSIFFFLLPSSL

>  <quantity kind>
protein stability index

>  <assay result>
0.539

$$$$
>  <record sequence>
ARVSLSFVSVSA

>  <quantity kind>
protein stability index

>  <assay result>
0.417

$$$$
>  <record sequence>
CLRVSFFFWLFA

>  <quantity kind>
protein stability index

>  <assay result>
0.465

$$$$
>  <record sequence>
GQLIYQHIFILG

>  <quantity kind>
protein stability index

>  <assay result>
0.662

$$$$
>  <record sequence>
GLCSGTGARWLV

>  <quantity kind>
protein stability index

>  <assay result>
0.703

$$$$

Dear colleague, could you send me protein stability index for each of the items below? Thanks.
1. GRWLYSACVALN
2. GELVLVMYGIWV
3. SFIVGYRWNNRN

OUTPUT:
1: 0.62; 2: 0.392; 3: 0.672

Can you give me protein stability index for all of these, one by one?
1. YSVERCLFVSVA
2. RDGAHFLLILVC
3. RFLVVVRFYWRC
4. IGYLGSELRFVS

OUTPUT:
0.422
0.0425
0.288
0.688

* * *

tested on: Saccharomyces cerevisiae; test: protein stability index of tFT-peptide fusion (C-terminal peptide) (PSI (0-1 scale)); higher = more stable (slower turnover); conditions: genetic background: wild type; temperature: 30 C
Task for the reader: assign each of the following sequences its reported protein stability index.
One number for each entry.

>  <record sequence>
MISIKNEKKKYT

>  <protein stability index>
0.685

$$$$
>  <record sequence>
SVSMYPKPHLIC

>  <protein stability index>
0.243

$$$$
>  <record sequence>
SNFRDISLHAAG

>  <protein stability index>
0.684

$$$$

Please state protein stability index for every sequence in the list that follows.
1. FAVHHLRYILLV
2. VYSVDGGKTVLD
3. RHRLTPLTQYPS

OUTPUT:
1. 0.106
2. 0.669
3. 0.677

* * *

test system: Saccharomyces cerevisiae; test: protein stability index of tFT-peptide fusion (C-terminal peptide) (PSI (0-1 scale)); higher = more stable (slower turnover); details: genetic background: doa10 deletion; temperature: 30 C
Please use Condition met whenever protein stability index is not below 0.3, and Condition not met whenever it is.

Look over these answered cases.
>  <record sequence>
PSPVRSSYASTL

>  <class assignment>
Condition met

$$$$
>  <record sequence>
TFVLREYVWVMS

>  <class assignment>
Condition not met

$$$$

INPUT: Assess whether reported protein stability index for FVCFSFFFPFLL sits at 0.3 or higher.
OUTPUT: Condition not met

INPUT: I'd appreciate it if you could say whether KHKIIGKYQRQI has protein stability index at least equal to 0.3.
OUTPUT: Condition met

INPUT: Is reported protein stability index greater than or equal to 0.3 here: CRLLVFGLCVGA
OUTPUT: Condition not met

* * *

system: Saccharomyces cerevisiae; experiment: protein stability index of tFT-peptide fusion (C-terminal peptide) (PSI (0-1 scale)); higher = more stable (slower turnover); conditions: genetic background: wild type; temperature: 37 C
quantity kind: protein stability index
One number for each entry.

>  <record sequence>
GPNWCSVCQGVG

>  <quantity kind>
protein stability index

>  <assay result>
0.473

$$$$
>  <record sequence>
LFLLFLCLSSLF

>  <quantity kind>
protein stability index

>  <assay result>
0.521

$$$$
>  <record sequence>
PISLYFVWFFFF

>  <quantity kind>
protein stability index

>  <assay result>
0.269

$$$$
>  <record sequence>
RRTTIFDTKEPP

>  <quantity kind>
protein stability index

>  <assay result>
0.569

$$$$

Batch request: protein stability index per item, same order as input.
1. GGVCVRMECWMG
2. LGGVGTLVHCFV
3. YALVQHRWVYYF
4. SGWGCRMVVCAG
5. LLRLCGFPLGVG
6. LVWDLFRCFSML
7. IWYGLFWLRFWV
8. GCILSLCYAVST

OUTPUT:
0.586
0.597
0.0856
0.265
0.51
0.351
0.537
0.523

* * *

system: Saccharomyces cerevisiae; test: protein stability index of tFT-peptide fusion (C-terminal peptide) (PSI (0-1 scale)); higher = more stable (slower turnover); details: genetic background: wild type; temperature: 30 C
Classification field: Condition met = protein stability index at or over 0.7; Condition not met = protein stability index under 0.7.

Answered cases to consult:
>  <record sequence>
PGPPADLAPPPP

>  <class assignment>
Condition met

$$$$
>  <record sequence>
NKKTKNNKGNKQ

>  <class assignment>
Condition met

$$$$
>  <record sequence>
LLFLVHGLCFSS

>  <class assignment>
Condition not met

$$$$

INPUT: Assess whether reported protein stability index for PPLPRPPLPTSL sits at 0.7 or higher.
OUTPUT: Condition not met

INPUT: Determine whether measured protein stability index meets or exceeds 0.7 for PFFPSQFFLFFS
OUTPUT: Condition not met

INPUT: Test whether the sequence LTLTQAPVRTDF records protein stability index of 0.7 or higher.
OUTPUT: Condition not met

INPUT: // inclusive: protein stability index at least 0.7? input: LSSRVYDCTRQG
OUTPUT: Condition not met

INPUT: Reported protein stability index at or above 0.7? GHLCVPWFGLVL
OUTPUT: Condition not met

INPUT: Could you verify whether the entry KDKKKNQNRKKN shows protein stability index of no less than 0.7?
OUTPUT: Condition not met

INPUT: Could you please find out whether VGDGQGGGGQGG has protein stability index that meets 0.7 or exceeds it?
OUTPUT: Condition not met

INPUT: Hi, just wondering whether SVWFSFVKVRGG shows protein stability index of 0.7 or higher.
OUTPUT: Condition not met

INPUT: Form field: protein stability index at least 0.7? Entry: THMSPLPTSERW
OUTPUT: Condition not met

INPUT: Please tell me: is the sequence RVCVERFDSLTL at or over 0.7 in terms of protein stability index?
OUTPUT: Condition met

INPUT: Could you tell me if the measured protein stability index of VYFPRLLVRVSW reaches 0.7 or more?
OUTPUT: Condition not met

INPUT: Identify whether the reported protein stability index of the following sequence is 0.7 or greater: VDHIKAHSDSEE
OUTPUT: Condition met

INPUT: Check if protein stability index >= 0.7 (inclusive). Item: KTSVLLCVSTSF
OUTPUT: Condition not met

INPUT: Hi, just wondering whether GGRWMWWAGAAG shows protein stability index of 0.7 or higher.
OUTPUT: Condition met

* * *

test system: Saccharomyces cerevisiae; test: protein stability index of tFT-peptide fusion (C-terminal peptide) (PSI (0-1 scale)); higher = more stable (slower turnover); settings: genetic background: wild type; temperature: 30 C
Class T: protein stability index at least 0.7. Class F: protein stability index below 0.7.

Study these solved cases before continuing.
>  <record sequence>
DRDGCVNAVLLV [NSA2 C-terminal 12 aa]

>  <class assignment>
F

$$$$
>  <record sequence>
RHISRLSRLLCR [YGR273C C-terminal 12 aa]

>  <class assignment>
F

$$$$
>  <record sequence>
DIFEDSSDEEQS [SPL2 C-terminal 12 aa]

>  <class assignment>
T

$$$$
>  <record sequence>
KTYLNFADNGQI [ELM1 C-terminal 12 aa]

>  <class assignment>
T

$$$$
>  <record sequence>
GDVSNLPYLDEL [QCR2 C-terminal 12 aa]

>  <class assignment>
T

$$$$

INPUT: // inclusive: protein stability index at least 0.7? input: PNAIRGIKAKKA [COX7 C-terminal 12 aa]
OUTPUT: F

INPUT: Dear colleague, could you confirm whether FIKKWAHYYKKF [SBE22 C-terminal 12 aa] has protein stability index at or above 0.7?
OUTPUT: F

INPUT: protein stability index >= 0.7 for AAMLTSENAREI [RRP45 C-terminal 12 aa] ?
OUTPUT: F

INPUT: Answer whether protein stability index of RERALKVYKDAM [PHR1 C-terminal 12 aa] is greater than or equal to 0.7.
OUTPUT: F

* * *

system: Saccharomyces cerevisiae; assay: protein stability index of tFT-peptide fusion (C-terminal peptide) (PSI (0-1 scale)); higher = more stable (slower turnover); details: genetic background: wild type; temperature: 30 C
Assign protein stability index to each entry below.
One number for each entry.

Here's what some known entries look like.
>  <record sequence>
KVNENWKRYGYK [FDC1 C-terminal 12 aa]

>  <protein stability index>
0.703

$$$$
>  <record sequence>
YLLGIYRDNKKC [ALG5 C-terminal 12 aa]

>  <protein stability index>
0.669

$$$$
>  <record sequence>
LKDLEKLGWKDE [YGR054W C-terminal 12 aa]

>  <protein stability index>
0.666

$$$$
>  <record sequence>
FSIRSISKFIFT [YOR325W C-terminal 12 aa]

>  <protein stability index>
0.665

$$$$
>  <record sequence>
DNTTKHSSNVHT [YER079W C-terminal 12 aa]

>  <protein stability index>
0.667

$$$$

Below is a list of sequences. For each, state its recorded protein stability index.
1. ENLVKQEAINGS [YAF9 C-terminal 12 aa]
2. EVLEVAEKFKEE [DOT5 C-terminal 12 aa]
3. ESLQKNIKIETK [MUM3 C-terminal 12 aa]
4. IVTKMDLLSYLA [CYS4 C-terminal 12 aa]
5. SSQQLTLRPPLG [YGL109W C-terminal 12 aa]
6. EERKDALANNIK [CCS1 C-terminal 12 aa]

OUTPUT:
0.683
0.683
0.671
0.478
0.669
0.688

Hey, quick one: what's protein stability index for each of these?
1. YYNLKNCITSET [YHR050W-A C-terminal 12 aa]
2. SSTTALDALNKE [TGL1 C-terminal 12 aa]
3. TRSSGDDQVFVF [PGA3 C-terminal 12 aa]
4. FVEGGDGKYVLN [YPL113C C-terminal 12 aa]
5. SENRFELAYFTS [YLR317W C-terminal 12 aa]
6. VENEDEPLFIER [INP51 C-terminal 12 aa]
7. GTQVMYISEQKI [LSM6 C-terminal 12 aa]

OUTPUT:
0.647
0.684
0.707
0.676
0.69
0.683
0.713

Provide protein stability index values for the following items, in order.
1. LLLSFYFDFYPF [YEL050W-A C-terminal 12 aa]
2. FYSLCEKGGYLK [BPT1 C-terminal 12 aa]
3. ILDMFAKRWILS [IZH3 C-terminal 12 aa]
4. EYPWEKPKTLKF [SAM1 C-terminal 12 aa]
5. PEEETNWFSGHG [PRP31 C-terminal 12 aa]
6. GVEKYWGILSNE [SCW4 C-terminal 12 aa]
7. TYMLNGPAGLLM [YNL165W C-terminal 12 aa]

OUTPUT:
1. 0.654
2. 0.667
3. 0.552
4. 0.692
5. 0.73
6. 0.726
7. 0.684
